TEST_TARGET: RORγ ligand binding domain (LBD) (Homo sapiens, UniProt P51449)
Construct: made in house; host or cells: E. coli BL-21 (BL3), vector pDEST15
Sequence (P51449 269-508 limits assumed): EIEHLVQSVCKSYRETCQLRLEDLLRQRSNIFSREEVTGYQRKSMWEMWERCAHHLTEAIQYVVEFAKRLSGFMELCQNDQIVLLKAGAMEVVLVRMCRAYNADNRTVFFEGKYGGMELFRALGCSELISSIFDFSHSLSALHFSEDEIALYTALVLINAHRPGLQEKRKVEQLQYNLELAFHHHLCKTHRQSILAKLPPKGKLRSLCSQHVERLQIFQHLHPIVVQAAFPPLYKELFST
TEST_METHOD_NOTES: TR-FRET Activity Assay (ligand sensing, RORγ-LBD / coactivator peptide interaction, LANCE)
Type: biochemical
Documented pIC50 across a set of molecules
Conceptually, pIC50 converts a concentration in mol/L into minus its log10.

MOLECULE	TEST_TARGET	pIC50
Cc1c(C(=O)NC2C[S+]([O-])C2)cc(-c2cc(C(C)(C)C)c3c(c2)C2(CCO3)CC2)n1CC1CCCCC1 (stereo not drawn)	RORγ ligand binding domain (LBD) (Homo sapiens, UniProt P51449)	6.50

Asked: Which value of pIC50 has been reported for Cc1c(C(=O)NCC(C)(C)O)cc(-c2cc(C3(C)CC3)nc(C(C)(C)C)n2)n1CC1CCCCC1 in the records?
Given back: 6.50

Asked: Can you share its pIC50? I mean this molecule: Cc1c(C(=O)NCCN2CCN(C)CC2)cc(-c2cc(C(C)(C)C)cc(C3(C)CC3)c2)n1CC1CCCCC1
Given back: 5.30

Asked: Would you mind telling me what pIC50 value was observed for Cc1c(C(=O)NCC2(O)CCOCC2)cc(-c2cc(C(C)(C)C)c3c(c2)C2(CCO3)CC2)n1CC1CCCCC1 ?
Given back: 6.40

Data origin: patent US9815851B2
